Collected MIC values appear next to each entry.
# System: Pseudomonas aeruginosa ATCC 9027
# TEST_METHOD_NOTES: ≥ marks a high value that may be exact or a test limit, other limits are often not marked, values filed in µg/mL are converted to µM

Illustrative cases are given below, each with its answer.
Data point: CC[C@H](C)[C@H](N)C(=O)N[C@H](C(=O)N[C@@H](CCCCN)C(=O)N[C@@H](Cc1c[nH]c2ccccc12)C(=O)N[C@@H](CC(C)C)C(=O)N[C@@H](CC(C)C)C(=O)N[C@@H](CC(N)=O)C(=O)N[C@@H](C)C(=O)N[C@H](C(=O)N[C@@H](CCCCN)C(=O)N[C@@H](CCCCN)C(=O)NCC(=O)N[C@@H](Cc1ccccc1)C(=O)N[C@@H](CCCCN)C(=O)N[C@@H](CC(C)C)C(=O)O)[C@@H](C)CC)[C@@H](C)O ; MIC = 64 µM

Please fill in: MIC reported for CC(C)C[C@H](NC(=O)[C@H](CC(C)C)NC(=O)[C@H](CC(C)C)NC(=O)[C@@H]1CCCN1C(=O)[C@H](CC(C)C)NC(=O)[C@@H](N)Cc1ccccc1)C(=O)N[C@@H](CO)C(=O)N[C@@H](C)C(=O)N[C@@H](CC(C)C)C(=O)N1CCC[C@H]1C(=O)N[C@@H](CO)C(=O)N[C@@H](Cc1ccccc1)C(=O)N[C@@H](CC(C)C)C(=O)N[C@H]1CSSC[C@@H](C(=O)O)NC(=O)[C@H](CCCCN)NC(=O)[C@H](CCCCN)NC(=O)[C@H](Cc2ccccc2)NC(=O)[C@H](C(C)C)NC(=O)[C@H](CC(C)C)NC1=O = > 44 µM

Attention now turns to another entry.
The molecule identified as CC(C)C[C@H](NC(=O)[C@H](CCCCN)NC(=O)[C@H](CCCCN)NC(=O)[C@H](C)NC(=O)[C@H](CC(C)C)NC(=O)[C@H](CCCCN)NC(=O)[C@H](C)NC(=O)[C@H](CC(C)C)NC(=O)[C@H](CC(C)C)NC(=O)[C@H](CCCCN)NC(=O)[C@H](C)NC(=O)[C@@H](N)Cc1ccccc1)C(N)=O registered its MIC at 149 µM

* * *

# Test system: Staphylococcus xylosus
EXPERIMENTAL_ENDPOINT: MIC (µM)
Entry rule: numbers only, all in µM.

Past entries and their recorded results:
The compound identified as CC[C@H](C)[C@H](NC(=O)[C@H](CO)NC(=O)[C@H](CCCCN)NC(=O)[C@H](CC(C)C)NC(=O)[C@H](CCCCN)NC(=O)[C@@H](N)CC(C)C)C(=O)N[C@H](C(=O)N[C@@H](CO)C(=O)N[C@@H](Cc1ccc(O)cc1)C(=O)N[C@@H](C)C(=O)N[C@@H](CCCCN)C(=O)N[C@@H](CCCCN)C(=O)N[C@H](C(=O)N[C@@H](CC(C)C)C(N)=O)C(C)C)C(C)C [LKLKSIVSYAKKVL] registered its MIC at 0.629

// recorded MIC for CC(C)C[C@H](NC(=O)[C@H](CC(C)C)NC(=O)[C@H](CC(C)C)NC(=O)[C@H](CC(C)C)NC(=O)[C@H](CC(C)C)NC(=O)[C@H](CCCCN)NC(=O)[C@H](CCCCN)NC(=O)[C@@H](N)CCCCN)C(=O)N[C@@H](CCCCN)C(=O)N[C@@H](CCCCN)C(=O)N[C@@H](CCCCN)C(=O)O [KKKLLLLLKKK] : 8

MIC reading for CC[C@H](C)[C@H](NC(=O)[C@H](CC(N)=O)NC(=O)[C@H](CCCCN)NC(=O)[C@H](CC(C)C)NC(=O)[C@H](CCCCN)NC(=O)[C@@H](N)CC(C)C)C(=O)N[C@H](C(=O)N[C@@H](CO)C(=O)N[C@@H](Cc1c[nH]c2ccccc12)C(=O)N[C@@H](C)C(=O)N[C@@H](CCCCN)C(=O)N[C@@H](CCCCN)C(=O)N[C@H](C(=O)N[C@@H](CC(C)C)C(N)=O)C(C)C)C(C)C [LKLKNIVSWAKKVL] : 0.61

Proceed to the following item.
For reference, reported MIC for CC[C@H](C)[C@H](N)C(=O)N[C@@H](CC(N)=O)C(=O)N[C@@H](CC(C)C)C(=O)N[C@@H](CCCCN)C(=O)N[C@@H](C)C(=O)N[C@H](C(=O)N[C@@H](C)C(=O)N[C@@H](C)C(=O)N[C@@H](Cc1ccccc1)C(=O)N[C@@H](C)C(=O)N[C@@H](CCCCN)C(=O)N[C@@H](CCCCN)C(=O)N[C@@H](CC(C)C)C(=O)N[C@@H](CC(C)C)C(N)=O)[C@@H](C)CC [INLKAIAAFAKKLL] stands at 1.32
